- Test system: rodent lifetime carcinogenesis bioassay, tumor incidence TD50
- assay_overview: carcinogenic potency in animals, long-term in vivo studies, CPDB compilation (AID 1745844)
- stated_conditions: rat; strain F344/DuCrj; males; in drinking water; site: liver; lesion: neoplastic nodule; dosed 104 weeks; study length 104 weeks
measurement_label: TD50 (mg/kg/day)
Enter your answer as a number in mg/kg/day; do not include the unit.

Request the reported TD50 associated with [O-][Br+2]([O-])O
53.2

---

- System: rodent lifetime carcinogenesis bioassay, tumor incidence TD50
- assay_overview: carcinogenic potency in animals, long-term in vivo studies, CPDB compilation (AID 1745844)
- stated_conditions: rat; strain Fischer 344; females; in feed; site: Zymbal's gland; lesion: ceruminous carcinoma + squamous-cell carcinoma; dosed 78 weeks; study length 106 weeks
measurement_label: TD50

What value of measured TD50 is listed for [O-]/[N+](=N\O)c1ccccc1 ?
171 mg/kg/day

---

- Test system: rodent lifetime carcinogenesis bioassay, tumor incidence TD50
- assay_overview: carcinogenic potency in animals, long-term in vivo studies, CPDB compilation (AID 1745844)
- stated_conditions: mouse; strain Charles River CD1; females; in feed; site: liver; lesion: hepatocellular adenoma; dosed 105 weeks; study length 105 weeks
Calls of active or inactive are those of the source. The rule behind the calls is not given here.
measurement_label: TD50

Endpoint output: TD50 of CC1=C(/C=C/C(C)=C/C=C/C(C)=C/C=C/C=C(C)/C=C/C=C(C)/C=C/C2=C(C)CCCC2(C)C)C(C)(C)CCC1 . Value?
15900 mg/kg/day (inactive)

---

- Test system: rodent lifetime carcinogenesis bioassay, tumor incidence TD50
- assay_overview: carcinogenic potency in animals, long-term in vivo studies, CPDB compilation (AID 1745844)
- stated_conditions: rat; strain Wistar; females; by gavage; site: forestomach; lesion: squamous-cell carcinoma; dosed 52 weeks; study length 69 weeks
measurement_label: TD50

Requested read-out TD50, target or system rodent lifetime carcinogenesis bioassay, tumor incidence TD50, entry COc1cccc2c1cc([N+](=O)[O-])c1c(C(=O)O)cc3c(c12)OCO3
0.101 mg/kg/day

---

- Tested on: rodent lifetime carcinogenesis bioassay, tumor incidence TD50
- assay_overview: carcinogenic potency in animals, long-term in vivo studies, CPDB compilation (AID 1745844)
- stated_conditions: mouse; strain BALB/c; females; i.p.; site: mammary gland; lesion: adenocarcinoma, type B; dosed 50 weeks; study length 72 weeks
measurement_label: TD50

For the molecule shown here, Nc1ncn([C@@H]2O[C@H](CO)[C@@H](O)[C@H]2O)c(=O)n1 , give the reported TD50.
0.618 mg/kg/day

---

- Tested on: rodent lifetime carcinogenesis bioassay, tumor incidence TD50
- assay_overview: carcinogenic potency in animals, long-term in vivo studies, CPDB compilation (AID 1745844)
- stated_conditions: rat; strain Wistar albino; females; in feed; site: liver; lesion: liver-cell carcinoma; dosed 33 weeks; study length 56 weeks
measurement_label: TD50

So what's the measured TD50 for this one? CN(C)c1ccc(N=Nc2ccccc2)cc1
7.42 mg/kg/day

---

- Tested on: rodent lifetime carcinogenesis bioassay, tumor incidence TD50
- assay_overview: carcinogenic potency in animals, long-term in vivo studies, CPDB compilation (AID 1745844)
- stated_conditions: rat; strain F344/DuCrj; males; in drinking water; site: liver; lesion: neoplastic nodule; dosed 108 weeks; study length 108 weeks
Calls of active or inactive are those of the source. How the calls were made is not given here.
measurement_label: TD50

Name the recorded TD50 for OCCOCCO .
34200 mg/kg/day (inactive)

---

- System: rodent lifetime carcinogenesis bioassay, tumor incidence TD50
- assay_overview: carcinogenic potency in animals, long-term in vivo studies, CPDB compilation (AID 1745844)
- stated_conditions: mouse; strain B6C3F1; females; in feed; site: lung; lesion: alveolar/bronchiolar adenoma + alveolar/bronchiolar carcinoma; dosed 78 weeks; study length 91 weeks
measurement_label: TD50 (mg/kg/day)
Numbers only here, please. The scale is mg/kg/day.

- item_smiles: "Cc1ccc(Cl)cc1N"
  TD50, mg/kg/day: 7480

Okay, now this compound:
Enter reported TD50 observed with rodent lifetime carcinogenesis bioassay, tumor incidence TD50 for CN(C)c1ccc(Cc2ccc(N(C)C)cc2)cc1
1080

---

- Test system: rodent lifetime carcinogenesis bioassay, tumor incidence TD50
- assay_overview: carcinogenic potency in animals, long-term in vivo studies, CPDB compilation (AID 1745844)
- stated_conditions: rat; strain Fischer 344; females; in drinking water; site: liver; lesion: neoplastic nodule; dosed 30 weeks; study length 75 weeks
measurement_label: TD50 (mg/kg/day)
Report the figure in mg/kg/day without appending any unit label.

Which TD50 value belongs to CC(O)CN(C)N=O (stereo unspecified) ?
2.54

---

- Test system: rodent lifetime carcinogenesis bioassay, tumor incidence TD50
- assay_overview: carcinogenic potency in animals, long-term in vivo studies, CPDB compilation (AID 1745844)
- stated_conditions: mouse; strain B6C3F1; females; by gavage; site: ovary; lesion: granulosa-cell carcinoma + granulosa-cell tumor; dosed 103 weeks; study length 104 weeks
measurement_label: TD50

What does the record list as TD50 for C=CC1CC=CCC1 (stereo unspecified) ?
309 mg/kg/day

---

- System: rodent lifetime carcinogenesis bioassay, tumor incidence TD50
- assay_overview: carcinogenic potency in animals, long-term in vivo studies, CPDB compilation (AID 1745844)
- stated_conditions: rat; strain Fischer 344; females; in feed; site: rectum; lesion: polypoid adenoma; dosed 40 weeks; study length 66 weeks
measurement_label: TD50 (mg/kg/day)
Give a bare numeral; the unit mg/kg/day is implied.

For the molecule shown here, Nc1c(Br)cc(Br)c2c1C(=O)c1ccccc1C2=O , give the reported TD50.
217

---

- Test system: rodent lifetime carcinogenesis bioassay, tumor incidence TD50
- assay_overview: carcinogenic potency in animals, long-term in vivo studies, CPDB compilation (AID 1745844)
- stated_conditions: hamster; strain Syrian Golden; females; in feed; site: ileum; lesion: adenocarcinoma; dosed 104 weeks; study length 104 weeks
Activity calls are given as the source filed them. How the calls were made is not given here.
measurement_label: TD50

Look up TD50: O=c1c(O)c(-c2ccc(O)c(O)c2)oc2cc(O)cc(O)c12
140000 mg/kg/day (inactive)

---

- Test system: rodent lifetime carcinogenesis bioassay, tumor incidence TD50
- assay_overview: carcinogenic potency in animals, long-term in vivo studies, CPDB compilation (AID 1745844)
- stated_conditions: rat; strain Wistar; males; in feed; site: liver; lesion: several types; types named in the paper; dosed 92 weeks; study length 92 weeks
measurement_label: TD50

Using the record for O=NO , report its TD50.
155 mg/kg/day

---

This listing pairs compounds with measured TD50.
- System: rodent lifetime carcinogenesis bioassay, tumor incidence TD50
- assay_overview: carcinogenic potency in animals, long-term in vivo studies, CPDB compilation (AID 1745844)
- stated_conditions: rat; strain Fischer 344; females; inhaled; site: mammary gland; lesion: fibroadenoma; dosed 104 weeks; study length 104 weeks

- item_smiles: "C=CCl"
  measurement_label: "TD50"
  reported_value: "32.9 mg/kg/day"

Now, please, on to the next compound.
Query: TD50; subject: C=CC(=C)Cl
16.3 mg/kg/day

---

- Test system: rodent lifetime carcinogenesis bioassay, tumor incidence TD50
- assay_overview: carcinogenic potency in animals, long-term in vivo studies, CPDB compilation (AID 1745844)
- stated_conditions: rat; strain Food and Drug Research Laboratories stock rats; both sexes; in feed; site: liver; lesion: several types; types named in the paper; dosed 93 weeks; study length 104 weeks
measurement_label: TD50

Recorded TD50 for CC(COc1ccc(C(C)(C)C)cc1)OS(=O)OCCCl (stereo unspecified) , please?
430 mg/kg/day

---

- System: rodent lifetime carcinogenesis bioassay, tumor incidence TD50
- assay_overview: carcinogenic potency in animals, long-term in vivo studies, CPDB compilation (AID 1745844)
- stated_conditions: mouse; strain B6C3F1; females; in feed; site: liver; lesion: hepatocellular adenoma; dosed 104 weeks; study length 104 weeks
Calls of active or inactive are those of the source. The rule behind the calls is not given here.
# TD50 values compiled below

- compound: "C[C@@H]1Cc2c(Cl)cc(C(=O)N[C@@H](Cc3ccccc3)C(=O)O)c(O)c2C(=O)O1"
  tested_target: "rodent lifetime carcinogenesis bioassay, tumor incidence TD50"
  TD50: "109 mg/kg/day"
- compound: "CCCCCCCCCc1ccc(OCCO)cc1"
  tested_target: "rodent lifetime carcinogenesis bioassay, tumor incidence TD50"
  TD50: "8670 mg/kg/day (inactive)"
- compound: "C[C@@H]1CCC[C@H](C)N1CCCC(O)(c1ccccc1)c1ccccn1 (stereo partly specified)"
  tested_target: "rodent lifetime carcinogenesis bioassay, tumor incidence TD50"
  TD50: "1560 mg/kg/day (inactive)"
- compound: "CN(C)CCOC(C)(c1ccccc1)c1ccccn1 (stereo unspecified)"
  tested_target: "rodent lifetime carcinogenesis bioassay, tumor incidence TD50"
  TD50: "633 mg/kg/day"
- compound: "Cc1cc(C)nc(NS(=O)(=O)c2ccc(N)cc2)n1"
  tested_target: "rodent lifetime carcinogenesis bioassay, tumor incidence TD50"
  TD50: "12300 mg/kg/day"

Now let's try a different one.
What value of TD50 has been recorded for this entry: CC/C(=C(\c1ccccc1)c1ccc(OCCN(C)C)cc1)c1ccccc1
101 mg/kg/day (inactive)
